// data source = the supplement of paper PMC12455559

- MEASUREMENT_NOTES: PET hydrolysis, aromatic products released after 48 h (umol product/mg enzyme); higher = more PET depolymerization activity
- CONDITIONS: substrate: cryPow; 40 °C; pH 7.5
Each item that follows carries a reported PET hydrolysis.
API note: the answer field is a bare number with no unit suffix.

// known answers, use as guide
construct_sequence="GSLAHIVMVDAYKPTKGSGASQTNPYARGPNPTAASLEASAGPFTVRSFTVSRPSGYGAGTVYYPTNAGGTVGAIAIVPGYTARQSSIKWWGPRLASHGFVVITIDTNSTFDYPSSRSSQQMAALRQVASLNGDSSSPIYGKVDTARMGVMGHSMGGGASLRSAANNPSLKAAIPQAPWDSQTNFSSVTVPTLIFACENDSIAPVNSHALPIYDSMSRNAKQFLEINGGSHSCANSGNSNQALIGKKGVAWMKRFMDNDTRYSTFACENPNSTAVSDFRTANCSLEGSGGSGAHIVMVDAYKPTK [TEP004]" experimental_result=69
construct_sequence="AANPYERGPDPTDAILEAARGPFETSRTEVPALSVTGFGGGTIYYPATTSAGTFGGVAVAPGYTADRTSLAWLAERLASHGFVVFNIDTLTRLDQPDSRGRQLLAALDYLTQRSSVRGRLDAGRLGVMGHSMGGGGTLEAARDRPSLQAAVPLTPWDLTKIWSGVRVPTMIVGAEADTIAPVASHAEPFYQSLPSSPGKAYLELNNATHFAPNVPDTTIGKYVVAWMKRFVDDDTRYTRFLCPGPSGGLTVEEYRSTCPFS [TEP194]" experimental_result=1.5

Now consider the entry below.
get_value(item= AENPHQRGPNPTVAALEAAAGPFAVAKVSVPGGHGFGGGTITYPTDTSQGTFGAVAVSPGFIESEGAIAWFGPRLASHGFVVITISTNGLFDQPDARGAQLLAALDYVTKSSAVRDRVDPARLAVMGHSMGGGGALYATAQRPALKASIPLLAWSNTKSWGSVRVPTMVIGAENDFIASVGSHSEPFYQSLGGEKAYLEMNDADHFVTNSPTPTVGKLTVSWLKRFMDNDTRYDQFLCPAPPVGGPISEYRDTCPYI [DP017] , readout=PET hydrolysis) returns 13
